The measured values listed here are drawn from PubChem BioAssay (NCI).

EXPERIMENT_NOTES: NCI Yeast Anticancer Drug Screen. Data for the mec2-1 strain (AID 157)
CONDITION_DETAILS: S. cerevisiae mec2-1 strain, at 11.0 µM, stronger effect = higher value
Compounds without any hit were thinned out: in the full panel of roughly 79,000, 15% have a hit.
Consider the following compounds; for each one, report its growth inhibition.
One number for each entry, in %.

Oc1ccc(Br)cc1C=Nc1cccc(C(F)(F)F)c1; 59
CCCCCCCCCCCCCCCCCN; 91
COc1ccc(C(=O)OCCc2ccccc2)cc1; -4

For the 5 compounds below, give their growth inhibition values.
1. COc1cc(NCCCCCNC(C)C)c2ncccc2c1Cl
2. CCC(C)/C(C)=N/NC(N)=O (stereo not drawn)
3. CCN(CC)c1cccc(Nc2nc3ccccc3s2)c1
4. NCC(O)CSCc1ccc(Cl)cc1 (stereo not drawn)
5. COc1cc(C(C)C(C(=O)O)C(=O)C(=O)O)cc(OC)c1OC (stereo not drawn)

Output:
1. 3
2. -1
3. 15
4. -2
5. -3

For the 4 compounds below, give their growth inhibition values.
1. Cc1ccc2nc(N/N=C/c3ccc(C)s3)cc(C)c2c1
2. O=[N+]([O-])C(=C(NCc1ccccc1)NCc1ccccc1)C(Cl)=C(Cl)Cl
3. OC1C#CCSCC#C/C=C\1 (stereo not drawn)
4. Cc1ccc(Cl)c2c(=O)c3ccccc3[nH]c12

Output:
[-19, 4, 14, -2]

Input: Provide only the value of recorded growth inhibition for O=C(N/N=C/c1ccc2c(c1)CCC2)c1ccccc1[N+](=O)[O-]
Output: -9
